Data credit: paper PMC8462848

molecular target: EGFR (Homo sapiens); construct: purchased #40321; assay: EGFR kinase assay kit, Kinase-Glo MAX luminescence; format: biochemical; settings: 0.1 µM; one experimental data
Sequence (P00533 25-1210): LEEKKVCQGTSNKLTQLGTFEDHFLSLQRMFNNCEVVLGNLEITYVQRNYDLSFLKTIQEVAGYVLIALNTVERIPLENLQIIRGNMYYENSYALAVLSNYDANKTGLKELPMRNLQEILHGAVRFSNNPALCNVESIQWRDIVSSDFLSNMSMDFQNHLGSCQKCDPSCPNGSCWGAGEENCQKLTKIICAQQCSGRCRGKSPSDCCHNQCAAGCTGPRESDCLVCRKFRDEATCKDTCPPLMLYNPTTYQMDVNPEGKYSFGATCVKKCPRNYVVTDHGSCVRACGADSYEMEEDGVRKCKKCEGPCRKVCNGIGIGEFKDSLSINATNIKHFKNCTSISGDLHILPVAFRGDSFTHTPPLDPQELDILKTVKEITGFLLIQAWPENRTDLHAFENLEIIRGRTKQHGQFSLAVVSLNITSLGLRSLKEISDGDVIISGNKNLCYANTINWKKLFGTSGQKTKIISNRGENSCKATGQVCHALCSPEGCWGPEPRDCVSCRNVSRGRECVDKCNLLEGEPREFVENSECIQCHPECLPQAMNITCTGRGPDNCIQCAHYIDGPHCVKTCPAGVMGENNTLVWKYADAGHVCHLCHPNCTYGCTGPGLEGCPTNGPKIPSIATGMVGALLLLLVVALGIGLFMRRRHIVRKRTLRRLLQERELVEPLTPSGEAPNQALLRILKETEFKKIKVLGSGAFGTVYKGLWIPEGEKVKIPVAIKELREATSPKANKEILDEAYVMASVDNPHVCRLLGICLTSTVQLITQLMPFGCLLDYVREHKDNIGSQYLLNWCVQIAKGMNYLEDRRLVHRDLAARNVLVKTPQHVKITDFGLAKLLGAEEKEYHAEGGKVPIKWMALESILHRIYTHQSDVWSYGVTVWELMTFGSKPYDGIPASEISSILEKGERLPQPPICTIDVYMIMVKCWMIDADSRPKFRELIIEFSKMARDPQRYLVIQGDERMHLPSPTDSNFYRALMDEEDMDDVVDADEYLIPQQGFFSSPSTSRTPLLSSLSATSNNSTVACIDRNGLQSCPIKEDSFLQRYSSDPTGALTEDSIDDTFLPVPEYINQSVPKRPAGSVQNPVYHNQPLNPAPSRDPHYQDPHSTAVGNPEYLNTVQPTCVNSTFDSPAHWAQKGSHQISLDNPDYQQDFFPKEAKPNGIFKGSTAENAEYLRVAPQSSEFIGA
The compounds listed here are annotated with their inhibition at 0.1 µM.
Express your answer in %, writing the number without its unit.

Would you please look over these solved cases?
Cc1cc(Cl)cc2c(=O)n(Cc3ccccc3)c(SCC(=O)NN)nc12
48.8
NNC(=O)CSc1nc2ccc(F)cc2c(=O)n1Cc1ccccc1
40.3

Moving on to the next compound.
Task item: Given CCOC(=O)CSc1nc2ccc(F)cc2c(=O)n1Cc1ccccc1 , state its recorded inhibition at 0.1 µM.
Reply: 48.9
